procedure-details: PK of Compound (A1) after intravenous dosing in mouse
Type: in vivo
condition-description: in vivo, 0.8 mg/kg
Starred links: 1 amine or outer side, 2 acyl side, 3 side chain; linkers in the order of their positions; H or OH if unused. Positions of bridges follow the written chain, without caps; N, C: chain ends. Non-standard residues stand in square brackets, D forms with d. Residues, ends and D or L forms follow the SMILES beside them. *: point of attachment. Leu(3R-OH,Nα-propionyl) = CCC(=O)N[C@H](C(=O)*)[C@H](O)C(C)C; X1 = CC(C)[C@@H](O[*:3])[C@H](N[*:1])C(=O)[*:2]; NMeT = CN[C@H](C(=O)O)[C@@H](C)O; dPhLac = O=C(O)[C@H](O)Cc1ccccc1; NMeA = CN[C@@H](C)C(=O)O; NMeDha = C=C(NC)C(=O)O
recorded-metric: AUC(0-inf)

[
  {
    "compound": "C=C1C(=O)N[C@@H](C)C(=O)N(C)[C@@H](C)C(=O)N[C@@H]([C@H](OC(=O)[C@@H](NC(=O)CC)[C@H](O)C(C)C)C(C)C)C(=O)N(C)[C@@H]([C@@H](C)OC)C(=O)O[C@H](C(C)C)[C@H](NC(C)=O)C(=O)O[C@H](Cc2ccccc2)C(=O)N1C [Compound (A1)] (Ac-[X1][dPhLac][NMeDha]A[NMeA][X1](Leu(3R-OH,Nα-propionyl))[NMeT](Me); ester 1-C)",
    "result-value": "0.137 µM·h"
  }
]

Attribution: patent US11779649B2
